experiment: Induction of nitric oxide release at 10^-4 M after 1 hr by Griess assay in presence of L-cysteine relative to control; type: physicochemical; details: 100 µM
measured-quantity: Activity (%)

1. O=c1cc(-c2ccc(OCCCCCCO[N+](=O)[O-])cc2)oc2cc(OCCCCCCO[N+](=O)[O-])cc(O)c12
2. O=c1cc(-c2ccc(OCCCCO[N+](=O)[O-])cc2)oc2cc(OCCCCO[N+](=O)[O-])cc(O)c12
3. O=C(COc1ccc(-c2cc(=O)c3c(O)cc(OCC(=O)OCCCCO[N+](=O)[O-])cc3o2)cc1)OCCCCO[N+](=O)[O-]
Q: Arrange the 3 compounds by rising Activity, starting with the smallest. // ordering of labels required in reply
Ans: 2, 1, 3
